Measured values drawn from PubChem BioAssay (NCI) for this set.

- RUN_DESCRIPTION: NCI Yeast Anticancer Drug Screen. Data for the wt2 strain (AID 169);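 further: 0% = growth of vehicle-treated yeast cultures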
- APPLIED_CONDITIONS: S. cerevisiae wt2 strain growth inhibition; at 3.7 µM; stronger effect = higher value
This is part of a sample that, as a whole, favours compounds with a hit. Of some 79,000 tested, about 15% had one in any assay.
Quick reference: growth inhibition of the listed items.

{"columns": ["COMPOUND", "growth inhibition [%]"],
 "data": [
  ["CN(C)CC(CN(C)C)C(=O)/C=C/c1ccc(Cl)cc1Cl", -5],
  ["Nc1ccc2c(c1)C(=O)c1c(F)cccc1-2", 0],
  ["CC(=O)NC(c1nc2cc(C)c(C)cc2[nH]1)c1nc2cc(C)c(C)cc2[nH]1", -25],
  ["CCCCCCCCCCCCCCCCCCNC(=S)/N=C/c1c(O)c2ccccc2[nH]c1=O", -1],
  ["C=CC(C)(C)N1C(=O)C(C(C)=O)=C(O)C1Cc1c[nH]c2ccccc12 (stereo not drawn)", -1],
  ["Cc1cccc2c(NCCCN(C)C)c3c([N+](=O)[O-])ccc(C)c3nc12", 15],
  ["Cc1cc(OCc2nc(N)nc(N)c2-c2ccc(Cl)c(Cl)c2)ccc1[N+](=O)[O-]", 4],
  ["c1ccc([P+](CCN2Cc3ccccc3C2)(c2ccccc2)c2ccccc2)cc1", -19],
  ["COC(=O)C(Cl)(Cl)N=Nc1c(Cl)cc(Cl)c(C)c1Cl", 89],
  ["CN(C)N=Nc1ccc(N(C)C)cc1", -1],
  ["COc1ccccc1/C=C\\C(=O)C1COCN1 (stereo not drawn)", 1],
  ["CC1C(c2ccccc2)SC(=N)N1C (stereo not drawn)", 8],
  ["O=C(/N=N/C(=O)Oc1ccccc1)Oc1ccccc1", -48],
  ["CCOP(=O)(OCC)/C(C#N)=C/c1ccc(-c2ccc(F)cc2F)o1", 0],
  ["CCC1(O)C(=O)OCc2c1cc1n(c2=O)Cc2cc3c(N)cccc3nc2-1 (stereo not drawn)", -18],
  ["CCN(CC)C(=S)SC(=S)N(CC)CC", 32],
  ["COc1ccc(C(OCC2OC(n3cnc4c(=O)n(Cc5ccccc5[N+](=O)[O-])nnc43)C(O)C2O)(c2ccccc2)c2ccc(OC)cc2)cc1 (stereo not drawn)", -4],
  ["N#[N+]c1c([O-])c2ccccc2c2ccccc12", 5],
  ["Cc1nc2sc3c(c2c(=O)o1)CCCC3", 1],
  ["Oc1c2c(c(O)c3ccccc13)C1(N=N2)c2ccccc2Oc2ccccc21", 49],
  ["Cc1cccc2c(Cl)c3cccc(C)c3nc12", -3],
  ["O=C(/C=C/c1ccsc1)c1cccs1", -36],
  ["N#CCC(=O)N/N=C(\\c1ccccc1)C(c1ccccc1)C1(O)C(=O)Nc2c(Cl)ccc(Cl)c21 (stereo not drawn)", 8]
]}
